test system: SF-268 CNS; assay: NCI tumour cell line growth inhibition, 48 h; in the data active means GI50 below about 0.43 µM; inactive means the rest
I would appreciate it if you answered using one of these outcomes: label 1 (active), label 0 (inactive)

Request: Give the logged outcome of this assay for the following molecule: COC1/C=C/OC2(C)Oc3c(C)c(O)c4c(O)c(c(C=NOC(c5ccccc5)c5ccccc5)c(O)c4c3C2=O)NC(=O)/C(C)=C/C=C/C(C)C(O)C(C)C(O)C(C)C(OC(C)=O)C1C (stereo not given)
Result: label 0

Request: Give the logged outcome of this assay for the following molecule: "O=C1Nc2c(ccc(Cl)c2Cl)/C1=C\c1cc(C(F)(F)F)cc(C(F)(F)F)c1"
Result: label 0

Request: Give the logged outcome of this assay for the following molecule: "Cn1cc(-c2ccc3nnc(C(F)(F)c4ccc5ncccc5c4)n3n2)cn1"
Result: label 0

Request: Give the logged outcome of this assay for the following molecule: "O=[N+]([O-])c1cccc([I+]c2ccccc2)c1"
Result: label 0

Request: Give the logged outcome of this assay for the following molecule: "Cc1nc2cc(Nc3nc(Nc4ccc(F)cc4)nc(N4CCCC4)n3)ccc2n1Cc1ccccc1"
Result: label 0

Request: Give the logged outcome of this assay for the following molecule: "Cc1cc2nc3c4cc([N+](=O)[O-])ccc4n(CCN(C)C)c3nc2cc1C"
Result: label 0

Request: Give the logged outcome of this assay for the following molecule: "O=C1c2ccccc2-c2ccccc2C1(Cl)Cl"
Result: label 0

Request: Give the logged outcome of this assay for the following molecule: "COc1cc(-c2ccc(=O)oc2C#Cc2ccccc2)cc(OC)c1OC"
Result: label 0

Request: Give the logged outcome of this assay for the following molecule: "CCOC(=O)Nc1cc(-c2ccc(C)c(NS(C)(=O)=O)c2)nn2c(C)nnc12"
Result: label 0

Request: Give the logged outcome of this assay for the following molecule: "Clc1ccc(Nc2ncnc3c2sc2ncccc23)c(Cl)c1"
Result: label 1

====

system: SNB-75 CNS; assay: NCI tumour cell line growth inhibition, 48 h
Property: TGI (µM)
A number alone suffices; assume µM.

Request: Field request: TGI | item: "Cc1cc(Cl)ccc1Nc1nc2c(s1)C(=O)c1ccccc1C2=O"
Result: 22

Request: Field request: TGI | item: "C=C(C)[C@@H]1CC[C@]2(C(=O)N3CCN(C)CC3)CC[C@]3(C)[C@H](CC[C@@H]4[C@@]5(C)CC[C@H](O)C(C)(C)[C@@H]5CC[C@]43C)[C@@H]12"
Result: 3.27

====

I'd be grateful if you could share measured TGI for these entries.
tested on: ACHN renal; assay: NCI tumour cell line growth inhibition, 48 h
A number alone suffices; assume µM.

Request: Field request: TGI | item: "O=[N+]([O-])c1ccc2c(N=Nc3ccc4ccccc4c3O)c(O)cc(S(=O)(=O)O)c2c1"
Result: 50.3

Request: Field request: TGI | item: "O=C(O)CCCc1cc2c(s1)-c1cccc3cccc-2c13"
Result: 76

====

system: HCC-2998 colon; experiment: NCI tumour cell line growth inhibition, 48 h
Property: TGI

Request: Field request: TGI | item: CCOC(=O)C(NC(=O)c1ccccc1)(Nc1ccc(S(=O)(=O)Nc2ccc(OC)nn2)cc1)C(F)(F)F (stereo not given)
Result: > 100 µM

Request: Field request: TGI | item: CC(=O)Oc1cc(OC(C)=O)c2c(c1)OC(c1ccc(OC(C)=O)c(OC(C)=O)c1)CC2=O (stereo not given)
Result: > 100 µM

Request: Field request: TGI | item: COC1/C=C/OC2(C)Oc3c(C)c(O)c4c(O)c(c(C=NOC(c5ccccc5)c5ccccc5)c(O)c4c3C2=O)NC(=O)/C(C)=C/C=C/C(C)C(O)C(C)C(O)C(C)C(OC(C)=O)C1C (stereo not given)
Result: 1.93 µM

Request: Field request: TGI | item: CCC1OC(=O)CC(O)C(C)C(OC2OC(C)CC(N(C)C)C2O)C(CC=O)CC(C)C(=O)/C=C/C2(C)OC2C1C (stereo not given)
Result: > 100 µM

Request: Field request: TGI | item: "O=c1[nH]c(-c2ccc([N+](=O)[O-])cc2)nc2ccc(Cl)cc12"
Result: > 100 µM

Request: Field request: TGI | item: "O=C(NCCCc1cn[nH]c(=O)n1)c1cccc2nc3ccccc3nc12"
Result: > 100 µM

Request: Field request: TGI | item: "N/C(=N\C(N)=N\c1nc2ccccc2s1)c1ccnc(Br)c1"
Result: > 100 µM

Request: Field request: TGI | item: C=CC(=C)CCC(Br)C(C)(C)Cl (stereo not given)
Result: > 100 µM

Request: Field request: TGI | item: O=C1C(Cl)C(c2ccc([N+](=O)[O-])cc2)N1n1cnc2ccccc2c1=O (stereo not given)
Result: > 100 µM

Request: Field request: TGI | item: "COc1ccc(OC)c(-c2cc(=O)c3cc4c(cc3[nH]2)OCO4)c1"
Result: 17.6 µM

Request: Field request: TGI | item: "Oc1[nH]c2ccccc2c1/C=c1/ccc2c(c1)N=C(c1cc(F)cc(F)c1)N=2"
Result: 20.7 µM

Request: Field request: TGI | item: "Cc1cc(Cl)ccc1Nc1nc2c(s1)C(=O)c1ccccc1C2=O"
Result: 16.1 µM

Request: Field request: TGI | item: "CC(=O)Nc1ccc(C(=O)n2[nH]c(C)c(/C=C3\C(=O)C=Cc4ccccc43)c2=O)cc1"
Result: > 100 µM

Request: Field request: TGI | item: "O=C1c2c(F)c(F)c(F)c(F)c2SC2=Nc3cccc4cccc(c34)N12"
Result: 28.5 µM

Request: Field request: TGI | item: "NNc1ncnc2cccc(Cl)c12"
Result: > 100 µM

Request: Field request: TGI | item: "Cc1ccc(Cc2n[nH]c(=O)n2N2C(=O)c3ccccc3C2=O)cc1"
Result: > 100 µM

Request: Field request: TGI | item: "COc1cc(C(=O)N(C(=O)N2CCCCC2)c2ccccc2)cc(OC)c1OC"
Result: > 100 µM

Request: Field request: TGI | item: "C=CNC(=S)n1nc(-c2ccccc2NC(=O)C(F)(F)F)c(=O)n(C(=S)NC=C)c1=S"
Result: > 100 µM

Request: Field request: TGI | item: "CCOC(=O)Nc1cc(-c2ccc(C)c(NS(C)(=O)=O)c2)nn2c(C)nnc12"
Result: 3.37 µM

Request: Field request: TGI | item: "O=C(c1ccccc1)c1c2n(c3c1cc(O)c1ccccc13)CCN2"
Result: 18.9 µM

====

tested on: K-562 leukemia; assay: NCI tumour cell line growth inhibition, 48 h
I'd be grateful if you could share measured GI50 for these entries.

Request: Checklist item: GI50 tested on K-562 leukemia, entry "Clc1ccc(Nc2ncnc3c2sc2ncccc23)c(Cl)c1" , value?
Result: 0.27 µM

Request: Checklist item: GI50 tested on K-562 leukemia, entry "COc1cccc(/C=C2\CCc3ccccc3C2=O)c1" , value?
Result: 3.29 µM

Request: Checklist item: GI50 tested on K-562 leukemia, entry "CNC(=O)c1cc(Oc2ccc3nc(NC(=O)Nc4cc(C(F)(F)F)cc(C(F)(F)F)c4)sc3c2)ccn1" , value?
Result: 0.784 µM

Request: Checklist item: GI50 tested on K-562 leukemia, entry O=C(NC(Cc1ccccc1)C(=O)CCl)OCc1ccccc1 (centres undefined) , value?
Result: 2.65 µM

Request: Checklist item: GI50 tested on K-562 leukemia, entry CCN(CC)CC(O)c1cc(-c2ccc(Cl)cc2)nc2cc(Cl)ccc12 (centres undefined) , value?
Result: 1.75 µM

Request: Checklist item: GI50 tested on K-562 leukemia, entry Nc1nc(Cl)nc2c1ncn2C1OC(CO)C(O)C1O (centres undefined) , value?
Result: > 85.3 µM

Request: Checklist item: GI50 tested on K-562 leukemia, entry "N/C(=N\C(N)=N\c1nc2ccccc2s1)c1ccnc(Br)c1" , value?
Result: 3.46 µM

Request: Checklist item: GI50 tested on K-562 leukemia, entry Cc1ccnc(NC(c2ccccc2)c2ccc3cccnc3c2O)c1 (centres undefined) , value?
Result: 3.27 µM

Request: Checklist item: GI50 tested on K-562 leukemia, entry "CCN(CC)CCNC(=O)C(Cl)=C1C(Cl)=C(Cl)C(Cl)=C1Cl" , value?
Result: 3.56 µM

====

tested on: UO-31 renal; assay: NCI tumour cell line growth inhibition, 48 h
Property: TGI (µM)
A number alone suffices; assume µM.

Request: Field request: TGI | item: COc1cc([C@@H]2c3cc4c(cc3[C@@H](NC(=O)c3ccc(OC(C)=O)cc3)C3COC(=O)[C@@H]32)OCO4)cc(OC)c1O (stereo not given in full)
Result: 30.6

Request: Field request: TGI | item: O=C1c2ccccc2C(=O)c2c(NCC3CO3)cccc21 (stereo not given)
Result: 22.5

Request: Field request: TGI | item: Cc1ccc(S(=O)(=O)OC2CSSCC2OS(=O)(=O)c2ccc(C)cc2)cc1 (stereo not given)
Result: 28.5

Request: Field request: TGI | item: "CCN(CC)CCNC(=O)C(Cl)=C1C(Cl)=C(Cl)C(Cl)=C1Cl"
Result: 26

Request: Field request: TGI | item: CCCCC1N=CNc2c1ccc1c2[nH]c2ccccc21 (stereo not given)
Result: 21.9
